Just for reference, PubChem BioAssay AID2060486 is where these values come from.

# Test system: IGROV1 complex spheroids (HUVEC, MSC), viability % test/control
# measurement.notes: Anticancer human tumor IGROV1 cell line growth inhibition [GQUAD];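 further: spheroids exposed to compounds for 7 days before readout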;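 on viability, T/C: 100% = DMSO vehicle control viability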
# run.conditions: second compound 10 µM; first compound 0.1 µM; stronger effect = lower value
Hi there, I'd appreciate the recorded viability, T/C for every entry that follows.

Given the entry Cc1cccc(N(C)C(=O)C2C(O)CCN2c2nc(C)cc(C(F)(F)F)c2C#N)c1 (stereo not drawn) + Cc1[nH]c2ccc(F)cc2c1-c1nc2c3cccnc3c3ncccc3c2[nH]1 , what viability, T/C was observed with IGROV1 complex spheroids (HUVEC, MSC), viability % test/control?
3.62%

Another: O=c1[nH]cc(F)c(=O)[nH]1 + Cc1[nH]c2ccc(F)cc2c1-c1nc2c3cccnc3c3ncccc3c2[nH]1
4.75%

Another: O=C(NO)c1cnc(N2CCN(S(=O)(=O)c3ccc4ccccc4c3)CC2)nc1 + Cc1[nH]c2ccc(F)cc2c1-c1nc2c3cccnc3c3ncccc3c2[nH]1
1.33%

====

# Tested on: IGROV1 complex spheroids (HUVEC, MSC), viability % test/control
# measurement.notes: Anticancer human tumor IGROV1 cell line growth inhibition [GQUAD]; active means viability on the fitted dose curve at most 10% of control; inactive means the rest;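 further: spheroids exposed to compounds for 7 days before readout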
# run.conditions: second compound 10 µM; first compound 0.1 µM
Entry note: the call must match one of active, inactive

Call for entry CCCS(=O)(=O)Nc1ccc(F)c(C(=O)c2c[nH]c3ncc(-c4ccc(Cl)cc4)cc23)c1F + CN(C)c1ccc(Nc2c3ccc(NC(=O)CCN4CCCC4)cc3nc3cc(NC(=O)CCN4CCCC4)ccc23)cc1 :
inactive

Another: CC(=O)O[C@H]1C(=O)[C@@]2(C)[C@H]([C@H](OC(=O)c3ccccc3)[C@]3(O)C[C@H](OC(=O)[C@H](O)[C@@H](NC(=O)c4ccccc4)c4ccccc4)C(C)=C1C3(C)C)[C@]1(OC(C)=O)CO[C@@H]1C[C@@H]2O + CN(C)c1ccc(Nc2c3ccc(NC(=O)CCN4CCCC4)cc3nc3cc(NC(=O)CCN4CCCC4)ccc23)cc1
active

Another: Cc1cccc(N(C)C(=O)C2C(O)CCN2c2nc(C)cc(C(F)(F)F)c2C#N)c1 (centres undefined) + Cc1cnc(CNC(=O)c2c(=O)c3ccc(N4CCCN(C)CC4)nc3n3c2sc2ccccc23)cn1
inactive

Another: COc1cc(C2c3cc4c(cc3C(OC3OC5COC(C)OC5C(O)C3O)C3COC(=O)C23)OCO4)cc(OC)c1O (centres undefined) + Cc1[nH]c2ccc(F)cc2c1-c1nc2c3cccnc3c3ncccc3c2[nH]1
active

====

# Tested on: IGROV1 complex spheroids (HUVEC, MSC), viability % test/control
# measurement.notes: Anticancer human tumor IGROV1 cell line growth inhibition [GQUAD];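 further: spheroids exposed to compounds for 7 days before readout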;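 on viability, T/C: 100% = DMSO vehicle control viability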
# run.conditions: second compound 10 µM; first compound 10 µM; stronger effect = lower value
Hi there, I'd appreciate the recorded viability, T/C for every entry that follows.
# value in %; strip the unit string

Which viability, T/C reading was recorded for the molecule CCCS(=O)(=O)Nc1ccc(F)c(C(=O)c2c[nH]c3ncc(-c4ccc(Cl)cc4)cc23)c1F + CN(C)c1ccc(Nc2c3ccc(NC(=O)CCN4CCCC4)cc3nc3cc(NC(=O)CCN4CCCC4)ccc23)cc1 ?
3.73

Another: O=c1[nH]cc(F)c(=O)[nH]1 + Cc1[nH]c2ccc(F)cc2c1-c1nc2c3cccnc3c3ncccc3c2[nH]1
5.12

Another: CC(C)(O)C1CCC(Nc2ccc3ncc(-c4cccc(C(F)(F)F)c4)n3n2)CC1 (stereo not given) + Cc1cnc(CNC(=O)c2c(=O)c3ccc(N4CCCN(C)CC4)nc3n3c2sc2ccccc23)cn1
0.12

Another: C=CC(=O)N1CCN(c2nc(=O)n(-c3c(C)ccnc3C(C)C)c3nc(-c4c(O)cccc4F)c(F)cc23)C(C)C1 (stereo not given) + Cc1cnc(CNC(=O)c2c(=O)c3ccc(N4CCCN(C)CC4)nc3n3c2sc2ccccc23)cn1
10

Another: C=CC(=O)N1CCN(c2nc(=O)n(-c3c(C)ccnc3C(C)C)c3nc(-c4c(O)cccc4F)c(F)cc23)C(C)C1 (stereo not given) + CN(C)c1ccc(Nc2c3ccc(NC(=O)CCN4CCCC4)cc3nc3cc(NC(=O)CCN4CCCC4)ccc23)cc1
26.3

Another: CCCS(=O)(=O)Nc1ccc(F)c(C(=O)c2c[nH]c3ncc(-c4ccc(Cl)cc4)cc23)c1F + Cc1cnc(CNC(=O)c2c(=O)c3ccc(N4CCCN(C)CC4)nc3n3c2sc2ccccc23)cn1
5.19

Another: O=C(NO)c1cnc(N2CCN(S(=O)(=O)c3ccc4ccccc4c3)CC2)nc1 + CN(C)c1ccc(Nc2c3ccc(NC(=O)CCN4CCCC4)cc3nc3cc(NC(=O)CCN4CCCC4)ccc23)cc1
0.11

Another: COc1cccc2c1C(=O)c1c(O)c3c(c(O)c1C2=O)CC(O)(C(=O)CO)CC3OC1CC(N)C(O)C(C)O1 (stereo not given) + Cc1cnc(CNC(=O)c2c(=O)c3ccc(N4CCCN(C)CC4)nc3n3c2sc2ccccc23)cn1
0.45

Another: CC(C)n1c(=O)n(C)c2cnc3cc(F)c(-c4ccc(OCCCN5CCCCC5)nc4)cc3c21 + CN(C)c1ccc(Nc2c3ccc(NC(=O)CCN4CCCC4)cc3nc3cc(NC(=O)CCN4CCCC4)ccc23)cc1
3.54

Another: CC(=O)O[C@H]1C(=O)[C@@]2(C)[C@H]([C@H](OC(=O)c3ccccc3)[C@]3(O)C[C@H](OC(=O)[C@H](O)[C@@H](NC(=O)c4ccccc4)c4ccccc4)C(C)=C1C3(C)C)[C@]1(OC(C)=O)CO[C@@H]1C[C@@H]2O + Cc1[nH]c2ccc(F)cc2c1-c1nc2c3cccnc3c3ncccc3c2[nH]1
2.4

====

# Tested on: IGROV1 complex spheroids (HUVEC, MSC), viability % test/control
# measurement.notes: Anticancer human tumor IGROV1 cell line growth inhibition [GQUAD];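 further: spheroids exposed to compounds for 7 days before readout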;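 on viability, T/C: 100% = DMSO vehicle control viability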
# run.conditions: second compound 1 µM; first compound 0.316 µM; stronger effect = lower value
Hi there, I'd appreciate the recorded viability, T/C for every entry that follows.
# value in %; strip the unit string

Which viability, T/C reading was recorded for the molecule CC(C)n1c(=O)n(C)c2cnc3cc(F)c(-c4ccc(OCCCN5CCCCC5)nc4)cc3c21 + Cc1cnc(CNC(=O)c2c(=O)c3ccc(N4CCCN(C)CC4)nc3n3c2sc2ccccc23)cn1 ?
9.09

Another: CC(=O)O[C@H]1C(=O)[C@@]2(C)[C@H]([C@H](OC(=O)c3ccccc3)[C@]3(O)C[C@H](OC(=O)[C@H](O)[C@@H](NC(=O)c4ccccc4)c4ccccc4)C(C)=C1C3(C)C)[C@]1(OC(C)=O)CO[C@@H]1C[C@@H]2O + Cc1cnc(CNC(=O)c2c(=O)c3ccc(N4CCCN(C)CC4)nc3n3c2sc2ccccc23)cn1
6.36

Another: C#Cc1c(F)ccc2cc(O)cc(-c3ncc4c(N5CC6CCC(C5)N6)nc(OCC56CCCN5CC(F)C6)nc4c3F)c12 (centres undefined) + CN(C)c1ccc(Nc2c3ccc(NC(=O)CCN4CCCC4)cc3nc3cc(NC(=O)CCN4CCCC4)ccc23)cc1
86.7

Another: COc1ncnc(C2CC2)c1-c1ncc2cnn(Cc3ccc(-c4nc(C(F)(F)F)cn4C(C)C)cc3)c2n1 + CN(C)c1ccc(Nc2c3ccc(NC(=O)CCN4CCCC4)cc3nc3cc(NC(=O)CCN4CCCC4)ccc23)cc1
98.7

====

# System: IGROV1 complex spheroids (HUVEC, MSC), viability % test/control
# measurement.notes: Anticancer human tumor IGROV1 cell line growth inhibition [GQUAD];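 further: spheroids exposed to compounds for 7 days before readout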;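 on viability, T/C: 100% = DMSO vehicle control viability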
# run.conditions: second compound 0.316 µM; first compound 0.0316 µM; stronger effect = lower value
Hi there, I'd appreciate the recorded viability, T/C for every entry that follows.
# value in %; strip the unit string

Which viability, T/C reading was recorded for the molecule Nc1ccn(C2OC(CO)C(O)C2(F)F)c(=O)n1 (stereo not drawn) + CN(C)c1ccc(Nc2c3ccc(NC(=O)CCN4CCCC4)cc3nc3cc(NC(=O)CCN4CCCC4)ccc23)cc1 ?
13.1

Another: COc1cc(C2c3cc4c(cc3C(OC3OC5COC(C)OC5C(O)C3O)C3COC(=O)C23)OCO4)cc(OC)c1O (stereo not drawn) + Cc1[nH]c2ccc(F)cc2c1-c1nc2c3cccnc3c3ncccc3c2[nH]1
68.3

Another: CC(C)n1c(=O)n(C)c2cnc3cc(F)c(-c4ccc(OCCCN5CCCCC5)nc4)cc3c21 + CN(C)c1ccc(Nc2c3ccc(NC(=O)CCN4CCCC4)cc3nc3cc(NC(=O)CCN4CCCC4)ccc23)cc1
86.1

====

Hi there, I'd appreciate the recorded IC50 for every entry that follows.
# System: IGROV1 complex spheroids (HUVEC, MSC), viability % test/control
# measurement.notes: Anticancer human tumor IGROV1 cell line growth inhibition [GQUAD];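 further: spheroids exposed to compounds for 7 days before readout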
# run.conditions: curve of first compound; second compound 1 µM

Which IC50 reading was recorded for the compound CC(=O)O[C@H]1C(=O)[C@@]2(C)[C@H]([C@H](OC(=O)c3ccccc3)[C@]3(O)C[C@H](OC(=O)[C@H](O)[C@@H](NC(=O)c4ccccc4)c4ccccc4)C(C)=C1C3(C)C)[C@]1(OC(C)=O)CO[C@@H]1C[C@@H]2O + Cc1[nH]c2ccc(F)cc2c1-c1nc2c3cccnc3c3ncccc3c2[nH]1 ?
< 31.6 nM

Another: CC(C)n1c(=O)n(C)c2cnc3cc(F)c(-c4ccc(OCCCN5CCCCC5)nc4)cc3c21 + Cc1[nH]c2ccc(F)cc2c1-c1nc2c3cccnc3c3ncccc3c2[nH]1
< 31.6 nM

Another: CC(=O)O[C@H]1C(=O)[C@@]2(C)[C@H]([C@H](OC(=O)c3ccccc3)[C@]3(O)C[C@H](OC(=O)[C@H](O)[C@@H](NC(=O)c4ccccc4)c4ccccc4)C(C)=C1C3(C)C)[C@]1(OC(C)=O)CO[C@@H]1C[C@@H]2O + Cc1cnc(CNC(=O)c2c(=O)c3ccc(N4CCCN(C)CC4)nc3n3c2sc2ccccc23)cn1
< 31.6 nM

Another: COc1cc(C2c3cc4c(cc3C(OC3OC5COC(C)OC5C(O)C3O)C3COC(=O)C23)OCO4)cc(OC)c1O (stereo not given) + Cc1[nH]c2ccc(F)cc2c1-c1nc2c3cccnc3c3ncccc3c2[nH]1
< 31.6 nM

Another: Cn1ncnc1[C@H]1c2n[nH]c(=O)c3cc(F)cc(c23)N[C@@H]1c1ccc(F)cc1 + CN(C)c1ccc(Nc2c3ccc(NC(=O)CCN4CCCC4)cc3nc3cc(NC(=O)CCN4CCCC4)ccc23)cc1
93.4 nM

Another: CCc1c2c(nc3ccc(O)cc13)-c1cc3c(c(=O)n1C2)COC(=O)[C@]3(O)CC + CN(C)c1ccc(Nc2c3ccc(NC(=O)CCN4CCCC4)cc3nc3cc(NC(=O)CCN4CCCC4)ccc23)cc1
< 0.999 nM

Another: CC1COCCN1c1cc(C2(S(C)(=N)=O)CC2)nc(-c2ccnc3[nH]ccc23)n1 (stereo not given) + Cc1cnc(CNC(=O)c2c(=O)c3ccc(N4CCCN(C)CC4)nc3n3c2sc2ccccc23)cn1
< 31.6 nM

Another: C#Cc1c(F)ccc2cc(O)cc(-c3ncc4c(N5CC6CCC(C5)N6)nc(OCC56CCCN5CC(F)C6)nc4c3F)c12 (stereo not given) + CN(C)c1ccc(Nc2c3ccc(NC(=O)CCN4CCCC4)cc3nc3cc(NC(=O)CCN4CCCC4)ccc23)cc1
8190 nM

Another: COc1cc(C2c3cc4c(cc3C(OC3OC5COC(C)OC5C(O)C3O)C3COC(=O)C23)OCO4)cc(OC)c1O (stereo not given) + CN(C)c1ccc(Nc2c3ccc(NC(=O)CCN4CCCC4)cc3nc3cc(NC(=O)CCN4CCCC4)ccc23)cc1
84.1 nM

Another: O=C(NO)c1cnc(N2CCN(S(=O)(=O)c3ccc4ccccc4c3)CC2)nc1 + Cc1cnc(CNC(=O)c2c(=O)c3ccc(N4CCCN(C)CC4)nc3n3c2sc2ccccc23)cn1
< 31.6 nM

Another: C=CCn1c(=O)c2cnc(Nc3ccc(N4CCN(C)CC4)cc3)nc2n1-c1cccc(C(C)(C)O)n1 + Cc1[nH]c2ccc(F)cc2c1-c1nc2c3cccnc3c3ncccc3c2[nH]1
< 31.6 nM

Another: CC1COCCN1c1cc(C2(S(C)(=N)=O)CC2)nc(-c2ccnc3[nH]ccc23)n1 (stereo not given) + Cc1[nH]c2ccc(F)cc2c1-c1nc2c3cccnc3c3ncccc3c2[nH]1
< 31.6 nM

Another: CCCS(=O)(=O)Nc1ccc(F)c(C(=O)c2c[nH]c3ncc(-c4ccc(Cl)cc4)cc23)c1F + CN(C)c1ccc(Nc2c3ccc(NC(=O)CCN4CCCC4)cc3nc3cc(NC(=O)CCN4CCCC4)ccc23)cc1
5190 nM

Another: O=c1[nH]cc(F)c(=O)[nH]1 + Cc1[nH]c2ccc(F)cc2c1-c1nc2c3cccnc3c3ncccc3c2[nH]1
< 31.6 nM

Another: CC1COCCN1c1cc(C2(O)CC3CCC(C2)O3)c2cnn(-c3ccn[nH]3)c2n1 (stereo not given) + Cc1[nH]c2ccc(F)cc2c1-c1nc2c3cccnc3c3ncccc3c2[nH]1
< 31.6 nM

Another: O=c1[nH]cc(F)c(=O)[nH]1 + Cc1cnc(CNC(=O)c2c(=O)c3ccc(N4CCCN(C)CC4)nc3n3c2sc2ccccc23)cn1
< 31.6 nM

Another: CC(C)(O)C1CCC(Nc2ccc3ncc(-c4cccc(C(F)(F)F)c4)n3n2)CC1 (stereo not given) + Cc1[nH]c2ccc(F)cc2c1-c1nc2c3cccnc3c3ncccc3c2[nH]1
< 31.6 nM

Another: CC1COCCN1c1cc(C2(O)CC3CCC(C2)O3)c2cnn(-c3ccn[nH]3)c2n1 (stereo not given) + Cc1cnc(CNC(=O)c2c(=O)c3ccc(N4CCCN(C)CC4)nc3n3c2sc2ccccc23)cn1
< 31.6 nM

Another: COc1ccc([C@@H](O)c2cc(-c3ncnc4cc(N5CCOCC5)ccc34)c(F)cc2Cl)nn1 + Cc1cnc(CNC(=O)c2c(=O)c3ccc(N4CCCN(C)CC4)nc3n3c2sc2ccccc23)cn1
< 31.6 nM

Another: COc1ncnc(C2CC2)c1-c1ncc2cnn(Cc3ccc(-c4nc(C(F)(F)F)cn4C(C)C)cc3)c2n1 + Cc1[nH]c2ccc(F)cc2c1-c1nc2c3cccnc3c3ncccc3c2[nH]1
< 31.6 nM
